- Tested on: HIV in primary human peripheral blood lymphocytes
- procedure.details: Primary PBL assay: inhibition of viral replication (p24 & RNA)
- Type: cell-based
- condition.parameters: Human immunodeficiency virus 1, Lymphocyte, primary human lymphocytes infected with HIV, days three and four, read-out: PBL INHIBITION OF VIRAL REPLICATION (p24 & RNA) ED50
pEC50: −log10 of the molar value.
quantity.name: pEC50

Tested on HIV in primary human peripheral blood lymphocytes: `CCNc1cccnc1N1CCN(C(=O)c2cc3ccccc3o2)CC1` . Observed pEC50: 5.00

Tested on HIV in primary human peripheral blood lymphocytes: `CCNc1cccnc1N1CCN(C(=O)c2cc3cc(Cl)ccc3[nH]2)CC1` . Observed pEC50: 8.00

Tested on HIV in primary human peripheral blood lymphocytes: `CCCNc1cccnc1N1CCN(C(=O)c2cc3cc(F)ccc3[nH]2)CC1` . Observed pEC50: 6.00 to 8.00

Tested on HIV in primary human peripheral blood lymphocytes: `CC(C)Nc1cccnc1N1CCN(C(=O)c2cc3cc(F)ccc3[nH]2)CC1` . Observed pEC50: 8.52

---

Below, each entry is listed with its recorded inhibition at 100 µM.
- assay.system: viral reverse transcriptase (Human immunodeficiency virus type 1 group M subtype B, UniProt P04585)
- Construct: Viral reverse transcriptase is found in extracts from bacterial clones; made in house; host or cells: Escherichia coli (extracts of bacterial clones, by the procedure of Larder et al., EMBO J. 6:3133-3137, 1987)
- procedure.details: Viral reverse transcriptase inhibition, cell free assay
- Format: biochemical, human immunodeficiency virus (HIV-1)
- condition.parameters: read-out: RT % INHIBITION (100 μM), 100 μM; poly rC or poly rG template

These solved cases illustrate the format of a correct answer.
compound | inhibition at 100 µM
Cc1c(C(=O)N2CCN(c3ncccc3NC(C)C)CC2)[nH]c2ccccc12 [Example 73] | 94 to 95%
CC(C)Nc1cc(F)ccc1N1CCN(C(=O)c2cc3ccccc3[nH]2)CC1 [Example 74] | 82 to 84%
CC(C)Nc1cccnc1N1CCN(C(=O)c2cc3ccc(F)cc3[nH]2)CC1 [Example 132] | 95 to 98%

Looking up COCC(C)Nc1cccnc1N1CCN(C(=O)c2cc3cc(F)ccc3[nH]2)CC1 (centres unmarked) [Example 106] , I found its inhibition at 100 µM recorded as 76 to 81%

Looking up CC(C)(C)Nc1ccnnc1N1CCN(C(=O)c2cc3cc(O)ccc3[nH]2)CC1 [Example 120] , I found its inhibition at 100 µM recorded as 87 to 90%

---

Below, each entry is listed with its recorded inhibition at 100 µM.
- assay.system: viral reverse transcriptase (Human immunodeficiency virus type 1 group M subtype B, UniProt P04585)
- Construct: Viral reverse transcriptase is found in extracts from bacterial clones; made in house; host or cells: Escherichia coli (extracts of bacterial clones, by the procedure of Larder et al., EMBO J. 6:3133-3137, 1987)
- procedure.details: Viral reverse transcriptase inhibition, cell free assay
- Assay type: biochemical, human immunodeficiency virus (HIV-1)
- condition.parameters: read-out: RT % INHIBITION (100 μM), 100 μM; poly rC or poly rG template
- Experimental: The utility of the diaromatic substituted piperazines (III), the anti-AIDS piperazines (IV) and the indoles (V) of this invention can be determined by their ability to inhibit viral reverse transcriptase, an enzyme essential for human immunodeficiency virus replication. […] Inhibition of this enzyme is determined in a cell free assay which measures the level of radioactive precursors incorporated into DNA. […] 3133-3137 (1987). Inhibition of this enzyme is determined in a cell free […]

These solved cases illustrate the format of a correct answer.
smiles.text | inhibition at 100 µM
CC(C)(C)Nc1ccnnc1N1CCN(C(=O)c2cc3cc(OCc4ccccc4)ccc3[nH]2)CC1 | 53 to 58%
CNc1cccnc1N1CCN(C(=O)c2cc3cc(OC)ccc3[nH]2)CC1 | 88 to 94%
CCNc1cccnc1N1CCN(C(=O)c2cc3ccc(OC)c(C)c3[nH]2)CC1 | 88 to 95%
CCNc1cccnc1N(C)CCN(C)C(=O)c1cc2ccccc2[nH]1 | 47 to 60%
CCNc1cccnc1N1CCN(C(=O)c2cc3cc(CC)ccc3[nH]2)CC1 | 65 to 70%
CC(C)Nc1cccnc1N1CCCN(C(=O)c2cc3ccccc3[nH]2)CC1 | 97 to 98%
CCCNc1cccnc1N1CCN(Cc2cc(C)c(OC)c(C)c2)CC1 | 39 to 42%
O=C(c1cc2ccccc2[nH]1)N1CCN(c2ncccc2NCC2CC2)CC1 | 65 to 71%

Looking up `Cc1ccc2[nH]c(C(=O)N3CCN(c4ncccc4NC(C)C)CC3)cc2c1` , I found its inhibition at 100 µM recorded as 61 to 74%
